Test system: human CB2 receptor (Homo sapiens, UniProt P34972)
Construct: expressed in transfected cells; host or cells: SK-N-MC cells, stably transfected with pcDNA3 CB-2 (human); semi-purified membrane pellet
Sequence (P34972 whole entry): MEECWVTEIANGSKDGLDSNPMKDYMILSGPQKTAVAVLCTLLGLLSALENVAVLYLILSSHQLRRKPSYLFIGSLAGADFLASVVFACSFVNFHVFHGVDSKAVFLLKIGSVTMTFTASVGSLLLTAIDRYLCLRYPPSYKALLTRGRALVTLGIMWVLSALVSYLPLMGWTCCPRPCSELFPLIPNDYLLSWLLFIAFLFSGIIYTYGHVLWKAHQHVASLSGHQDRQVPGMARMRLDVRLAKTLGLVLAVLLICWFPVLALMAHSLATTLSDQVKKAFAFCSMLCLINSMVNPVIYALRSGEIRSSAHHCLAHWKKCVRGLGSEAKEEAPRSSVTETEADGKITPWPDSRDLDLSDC
Assay explanation: Binding assay, cannabinoid CB2 receptor, [3H]-CP-55,940 displacement
Experimental context: read-out: Cannabinoid CB2 Receptor Binding, percent inhibition
Note to self: values exactly at 50% are Met. So inhibition at 1 µM at or above 50% is Met, below is Not met.

# Compound, Class assignment
measured = [
    ("CC(=Cc1ccc(Cl)cc1)c1c(C)c(C(=O)N[C@@H]2C(C)(C)[C@@H]3CC[C@]2(C)C3)nn1-c1ccc(Cl)cc1Cl", "Not met"),
    ("CC(=Cc1ccc(Cl)cc1)c1c(C)c(C(=O)NC2CCCCC2)nn1-c1ccc(Cl)cc1Cl", "Not met"),
    ("CC(=Cc1ccc(Cl)cc1)c1c(C)c(C(=O)N[C@H](C)C2CCCCC2)nn1-c1ccc(Cl)cc1Cl", "Not met"),
]

Please check the record CC(=Cc1ccc(Cl)cc1)c1c(C)c(C(=O)NC2CCCCC2C)nn1-c1ccc(Cl)cc1Cl (centres unmarked) and state if its inhibition at 1 µM is at or above 50%. Met
